# key: entry, value: TGI
tested on: LOX IMVI melanoma; test: NCI tumour cell line growth inhibition, 48 h

[
  {
    "Compound": "CC1CC(=O)Nc2ccccc2N1C(=O)C1CC1 (stereo unspecified)",
    "TGI": "> 100 µM"
  },
  {
    "Compound": "O=C(CC1(O)C(=O)Nc2ccccc21)c1ccccc1O (stereo unspecified)",
    "TGI": "> 100 µM"
  },
  {
    "Compound": "CCCC(C(=O)OC)C1N=C(NC#N)N(Cc2ccccc2)C1=O (stereo unspecified)",
    "TGI": "> 100 µM"
  },
  {
    "Compound": "N#CCCN(c1ccc(C=O)cc1)S(=O)(=O)c1ccccc1",
    "TGI": "> 100 µM"
  },
  {
    "Compound": "CC[As](CC)SCC1OC(OC(C)=O)C(OC(C)=O)C(OC(C)=O)C1OC(C)=O (stereo unspecified)",
    "TGI": "33.6 µM"
  },
  {
    "Compound": "CC[C@@]1(O)C(=O)OCc2c1cc1n(c2=O)Cc2c-1nc1cc(F)c(C)c3c1c2[C@@H](NC(=O)CO)CC3",
    "TGI": "0.0314 µM"
  }
]

Note TGI for the compound shown: "Cc1ccc(-c2cc(=O)c(=O)[nH][nH]2)cc1"
> 100 µM

Note TGI for the compound shown: CCN(/N=C1\CC2C=CCN(C2)C(=O)Cc2c1[nH]c1ccccc21)S(=O)(=O)c1ccc(C)cc1 (stereo unspecified)
> 100 µM

Note TGI for the compound shown: "O=C(O)c1ccc(Nc2cnc3cc(C(F)(F)F)ccc3n2)cc1"
> 100 µM

====

tested on: MOLT-4 leukemia; test: NCI tumour cell line growth inhibition, 48 h
# key: entry, value: TGI

Note TGI for the compound shown: "C#CCn1c(=O)ccn(/C(=C/C(=O)OCC)C(=O)OCC)c1=O"
> 56.4 µM

====

tested on: MCF7 breast; assay: NCI tumour cell line growth inhibition, 48 h; in the data active means GI50 below about 0.43 µM; inactive means the rest
Could you please pick one outcome from this set? YES (active), NO (inactive)

Example cases with answers are listed next.
[
  {
    "Molecule": "COc1ccc(/C=C/C(=O)/C=C(O)/C=C/c2ccc(OC)c(OC)c2)cc1OC",
    "Category": "NO"
  },
  {
    "Molecule": "CC(=O)Nc1cc2c3c(cccc3c1)-c1ccccc1-2",
    "Category": "NO"
  },
  {
    "Molecule": "COc1cc(N(CCCl)CCCl)ccc1/C=N\\NC(=O)c1cccnc1",
    "Category": "NO"
  },
  {
    "Molecule": "O=C1OCC2=C1C(c1cccc(Cl)c1)c1cc3c(cc1N2CCO)CCC3 (stereo not given)",
    "Category": "YES"
  },
  {
    "Molecule": "COc1cc(C(=O)NN=C2c3ccccc3-c3ccccc32)cc(OC)c1OC",
    "Category": "NO"
  }
]

Consider now this further molecule.
Recorded test call requested for CC[C@@H](C)/C=C(C)/C=C/C(=O)c1c(O)c(-c2ccc(O)cc2)cn(OC2CC(=O)CCC(C)OC(=O)CC2O)c1=O (stereo not given in full)
YES

====

system: COLO 205 colon; test: NCI tumour cell line growth inhibition, 48 h
Reported endpoint: TGI

[
  {
    "Compound structure string": "CON[N+]([O-])=NC(C)C",
    "Reported endpoint": "TGI",
    "Result": "> 100 µM"
  },
  {
    "Compound structure string": "O=C1CN(c2ccccc2)C(=O)CN1NCNN1CC(=O)N(c2ccccc2)CC1=O",
    "Reported endpoint": "TGI",
    "Result": "> 100 µM"
  },
  {
    "Compound structure string": "COC(=O)Nc1nc2ccc(C(=O)c3ccc(F)cc3)cc2[nH]1",
    "Reported endpoint": "TGI",
    "Result": "0.554 µM"
  }
]

Note TGI for the compound shown: "O=C(Nc1ccc(Cl)cc1)c1cc(S(=O)(=O)N2CCNNC2=O)c(S)cc1Cl"
> 100 µM

====

system: OVCAR-8 ovarian; experiment: NCI tumour cell line growth inhibition, 48 h
Reported endpoint: TGI

Example results:
[
  {
    "Compound": "CO/C(=C1/NC(=O)C(Cc2ccc(O)c(Br)c2)N(C)C(=O)C(C)NC(=O)CCC/C=C(\\C)CCC(C)OC1=O)c1ccccc1 (stereo not given)",
    "TGI": "6.41 µM"
  },
  {
    "Compound": "CC1=C(C(=O)Nc2ccc(C)cc2)C(c2cccc([N+](=O)[O-])c2)C(C(=O)Nc2ccc(C)cc2)=C(C)N1",
    "TGI": "> 100 µM"
  },
  {
    "Compound": "COc1cc(OC)c(/C=N\\Nc2nc3ccccc3c(=O)n2-c2ccccc2)c(OC)c1",
    "TGI": "> 64 µM"
  },
  {
    "Compound": "Nc1cc(N)c2nc(NCCc3ccc(Cl)c(Cl)c3)cnc2c1",
    "TGI": "25.3 µM"
  },
  {
    "Compound": "C=CC(=O)N1CCC[C@@H](n2nc(-c3ccc(Oc4ccccc4)cc3)c3c(N)ncnc32)C1",
    "TGI": "> 10 µM"
  },
  {
    "Compound": "O=c1c2cc([N+](=O)[O-])ccc2n2n1CCCCC2",
    "TGI": "> 100 µM"
  },
  {
    "Compound": "COc1cc(N(CCCl)CCCl)ccc1/C=N\\NC(=O)c1cccnc1",
    "TGI": "> 100 µM"
  },
  {
    "Compound": "COc1ccc2nc3cc(Cl)ccc3c(NCCCCCC(=O)NC(COc3ccc4ccc5cccnc5c4n3)COc3ccc4ccc5cccnc5c4n3)c2c1",
    "TGI": "> 100 µM"
  },
  {
    "Compound": "CCc1ncc(CO)n1Cc1cccc2ccccc12",
    "TGI": "> 100 µM"
  }
]

Note TGI for the compound shown: "COC(=O)C1=CC(=O)[C@@H]2CCCC[C@H]12"
> 100 µM

====

test system: SR leukemia; assay: NCI tumour cell line growth inhibition, 48 h
Reported endpoint: GI50

Example results:
[
  {
    "Compound": "COc1ccc(/C=C/C(=O)/C=C(O)/C=C/c2ccc(OC)c(OC)c2)cc1OC",
    "Target entity": "SR leukemia",
    "Result": "1680 nM"
  },
  {
    "Compound": "Cc1cc(N=Cc2c(CO)cnc(C)c2O)c(N=Cc2c(CO)cnc(C)c2O)cc1C",
    "Target entity": "SR leukemia",
    "Result": "41200 nM"
  },
  {
    "Compound": "COc1cc(N(CCCl)CCCl)ccc1/C=N\\NC(=O)c1cccnc1",
    "Target entity": "SR leukemia",
    "Result": "13700 nM"
  },
  {
    "Compound": "CC(=O)ON=C1C=CC(=C(C#N)c2ccccc2)C=C1",
    "Target entity": "SR leukemia",
    "Result": "619 nM"
  },
  {
    "Compound": "O=C1OCC2=C1C(c1cccc(Cl)c1)c1cc3c(cc1N2CCO)CCC3 (stereo unspecified)",
    "Target entity": "SR leukemia",
    "Result": "60.9 nM"
  },
  {
    "Compound": "COC(=O)c1cccc(NC(=O)c2ccc(NC3=C(Cl)C(=O)N(Cc4ccccc4)C3=O)cc2)c1",
    "Target entity": "SR leukemia",
    "Result": "1870 nM"
  }
]

Note GI50 for the compound shown: "CN1CCN(CCC=C2c3ccccc3Sc3ccc(S(=O)(=O)N(C)C)cc32)CC1"
2190 nM

Note GI50 for the compound shown: "Cc1cc(-c2cc(OC(=O)c3ccccc3)ccc2Cl)cc2nnc(Nc3ccc(OCCN4CCCC4)cc3)nc12"
460 nM

Note GI50 for the compound shown: "CCCCOC(=O)c1c(C)[nH]c(/C=C2\N=C(c3ccc[nH]3)C=C2OC)c1C"
82.1 nM

Note GI50 for the compound shown: "COC(=O)c1c2c(c(C)[n+]([O-])c1C)C(=O)C(NCc1ccc(O)cc1)=CC2=O"
1830 nM

Note GI50 for the compound shown: "Fc1ccc(Nc2nc3nonc3nc2Nc2ccc(I)cc2)cc1"
252 nM

====

tested on: SK-MEL-28 melanoma; experiment: NCI tumour cell line growth inhibition, 48 h
Reported endpoint: TGI

Note TGI for the molecule shown: CCOC(=O)C(=O)C(C#N)c1ccc(Cl)cc1 (stereo not given)
> 100 µM

Note TGI for the molecule shown: "C[C@@H]1CC[C@@]2(C)[C@H](C)/C(=C\COC(=O)/C=C/c3ccc(O)c(O)c3)CC[C@@]12C"
24.5 µM

Note TGI for the molecule shown: "C=CC(=O)N1CCC[C@@H](n2nc(-c3ccc(Oc4ccccc4)cc3)c3c(N)ncnc32)C1"
> 10 µM
